# System: barnyardgrass (Echinochloa crus-galli)
# protocolNotes: Test B flooded paddy test
# Type: in vivo
# conditionLabel: Echinochloa crus-galli, 250 g ai/ha, Flood; 0 to 100 scale where 0 is no effect and 100 is complete control; read-out: Barnyardgrass plant response rating
# Experimental: Plant species in the flooded paddy test selected from rice (Oryra sativa), sedge, umbrella (small-flower umbrella sedge, Cyperus difformis), ducksalad (Heteranthera limosa), and barnyardgrass (Echinochloa crus-galli) were grown to the 2-leaf stage for testing. […] Treated plants and controls were maintained in a greenhouse for 13 to 15 d, after which time all species were compared to controls and visually evaluated. […]
Kindly apply the following: 1 if pest or weed control at 250 g/ha is less than 60%, -1 in every other case.

[
  {
    "inputSmiles": "N#Cc1cc([C@H]2CNC(=O)[C@@H]2C(=O)Nc2ccccc2F)ccc1F",
    "systemTested": "barnyardgrass (Echinochloa crus-galli)",
    "assignedLabel": 1
  },
  {
    "inputSmiles": "CN1C[C@H](c2ccc(C(F)F)cc2)[C@@H](C(=O)Nc2cccnc2F)C1=O",
    "systemTested": "barnyardgrass (Echinochloa crus-galli)",
    "assignedLabel": 1
  },
  {
    "inputSmiles": "O=C1NC[C@H](c2ccc(F)c(Oc3ccccc3)c2)[C@H]1C(=O)Nc1cccc(F)c1F",
    "systemTested": "barnyardgrass (Echinochloa crus-galli)",
    "assignedLabel": 1
  },
  {
    "inputSmiles": "CN1C[C@H](c2cc(C(F)F)cs2)[C@@H](C(=O)Nc2cccc(F)n2)C1=O",
    "systemTested": "barnyardgrass (Echinochloa crus-galli)",
    "assignedLabel": -1
  },
  {
    "inputSmiles": "CN1CC[C@H](c2ccccc2C(F)(F)F)[C@@H](C(=O)Nc2cccc(F)c2F)C1=O",
    "systemTested": "barnyardgrass (Echinochloa crus-galli)",
    "assignedLabel": 1
  }
]

---

# System: pigweed (Amaranthus retroflexus)
# protocolNotes: Test A preemergence
# Type: in vivo
# conditionLabel: Amaranthus retroflexus, pre-emergence, 240 h, 125 g ai/ha, preemergence; visual injury rating, 0 to 100 scale where 0 is no effect and 100 is complete control; approximately 10 d; read-out: Pigweed plant response rating
propertyLabel: pest or weed control at 125 g/ha

[
  {
    "compound": "COc1ccc(C(F)(F)F)cc1[C@H]1CN(C)C(=O)[C@@H]1C(=O)Nc1ccccc1F [Compound 1183]",
    "propertyLabel": "pest or weed control at 125 g/ha",
    "result": "0%"
  },
  {
    "compound": "Cn1ccc2ccc([C@H]3CNC(=O)[C@@H]3C(=O)Nc3cccc(F)c3F)cc21 [Compound 1263]",
    "propertyLabel": "pest or weed control at 125 g/ha",
    "result": "0%"
  },
  {
    "compound": "CN1C[C@H](c2ccc(F)c(Oc3ccccc3)c2)[C@@H](C(=O)Nc2cccc(F)c2F)C1=O [Compound 1259]",
    "propertyLabel": "pest or weed control at 125 g/ha",
    "result": "30%"
  },
  {
    "compound": "O=C1NC[C@H](c2cccc(C(F)(F)F)c2)[C@H]1C(=O)Nc1ccccc1-n1cncn1 [Compound 1290]",
    "propertyLabel": "pest or weed control at 125 g/ha",
    "result": "0%"
  }
]

---

# Tested on: giant foxtail (Setaria faberi)
# protocolNotes: Test G Pre-Emergence Protocol
# Assay type: in vivo
# conditionLabel: Setaria faberi, pre-emergence, 312 h, 62.5 g ai/ha, evaluated after 13 days, 100=total damage to plant, 0=no damage to plant, read-out: plant damage rating, Foxtail, Giant
# Source text: Seeds of corn (Zea mays), giant foxtail (Setaria faberi), barnyardgrass (Echinochloa crus-galli), ivy-leaved morning glory (Ipomoea hederacea), redroot pigweed (Amaranthus retroflexus) and velvetleaf (Abutilon theophrasti) were sown in standard soil in pots. […]

[
  {
    "molecule": "CSc1nnc(NC(=O)[C@@H]2C(=O)N(C)C[C@H]2c2ccc(C(F)(F)F)cc2)[nH]1 (racemic)",
    "pest or weed control at 62.5 g/ha [%]": 0
  },
  {
    "molecule": "CN1C[C@@H](c2ccc(C(F)(F)F)cc2)[C@H](C(=O)Nc2nccc(=O)[nH]2)C1=O (racemic)",
    "pest or weed control at 62.5 g/ha [%]": 0
  },
  {
    "molecule": "Cc1nccc(NC(=O)[C@@H]2C(=O)N(C)C[C@H]2c2ccc(C(F)(F)F)cc2)n1 (racemic)",
    "pest or weed control at 62.5 g/ha [%]": 0
  },
  {
    "molecule": "CN1C[C@@H](c2ccc(C(F)(F)F)cc2)[C@H](C(=O)Nc2nnc(C(F)(F)F)o2)C1=O (racemic)",
    "pest or weed control at 62.5 g/ha [%]": 0
  },
  {
    "molecule": "CN1C[C@@H](c2cnc(Cl)c(F)c2)[C@H](C(=O)Nc2cccc(F)c2F)C1=O (racemic)",
    "pest or weed control at 62.5 g/ha [%]": 90
  },
  {
    "molecule": "C#Cc1ccccc1NC(=O)[C@H]1C(=O)N(C)C[C@@H]1c1ccc(C(F)(F)F)cc1 (racemic)",
    "pest or weed control at 62.5 g/ha [%]": 10
  },
  {
    "molecule": "CN1C[C@H](c2ccc(Cl)cc2)[C@@H](C(=O)Nc2cccc(F)n2)C1=O",
    "pest or weed control at 62.5 g/ha [%]": 90
  }
]

---

Recorded pest or weed control at 250 g/ha values for a group of compounds are listed next.
# Tested on: barnyardgrass (Echinochloa crus-galli)
# protocolNotes: Test G Post-Emergence Protocol
# Type: in vivo
# conditionLabel: Echinochloa crus-galli, post-emergence, 312 h, 250 g ai/ha, evaluated after 13 days, read-out: damage to plant, Barnyardgrass (100=total damage to plant; 0=no damage to plant)

[
  {
    "compound": "Cc1ccc(NC(=O)[C@H]2C(=O)N(C)C[C@@H]2c2ccc(C(F)(F)F)cc2)c(C)c1C (racemic)",
    "pest or weed control at 250 g/ha": "0%"
  },
  {
    "compound": "CN1C[C@@H](c2ccc(C(F)(F)F)cc2)[C@H](C(=O)Nc2cccc(C(F)(F)F)n2)C1=O (racemic)",
    "pest or weed control at 250 g/ha": "0%"
  },
  {
    "compound": "Cc1csc(NC(=O)[C@@H]2C(=O)N(C)C[C@H]2c2ccc(C(F)(F)F)cc2)c1C#N (racemic)",
    "pest or weed control at 250 g/ha": "70%"
  },
  {
    "compound": "CN1C[C@@H](c2ccc(C(F)(F)F)cc2)[C@H](C(=O)Nc2cccc(C(F)(F)F)c2[N+](=O)[O-])C1=O (racemic)",
    "pest or weed control at 250 g/ha": "20%"
  },
  {
    "compound": "CN1C[C@@H](c2ccc(C(F)(F)F)cc2)[C@H](C(=O)Nc2nnc(C(F)(F)F)o2)C1=O (racemic)",
    "pest or weed control at 250 g/ha": "0%"
  },
  {
    "compound": "CC(C)c1cc(NC(=O)[C@@H]2C(=O)N(C)C[C@H]2c2ccc(C(F)(F)F)cc2)[nH]n1 (racemic)",
    "pest or weed control at 250 g/ha": "0%"
  },
  {
    "compound": "CN1C[C@H](c2ccc(C(F)(F)F)cc2)[C@@H](C(=O)Nc2ccc(F)cc2S(C)(=O)=O)C1=O (racemic)",
    "pest or weed control at 250 g/ha": "70%"
  }
]

---

# Test system: Kochia (Kochia scoparia)
# protocolNotes: Test A preemergence
# Format: in vivo
# conditionLabel: Bassia scoparia, pre-emergence, 240 h, 125 g ai/ha, Preemergence, visual injury rating after approximately 10 d; read-out: Kochia plant response rating (0 to 100 scale, 0 is no effect, 100 is complete control)
propertyLabel: pest or weed control at 125 g/ha (%)

[
  {
    "compound": "CCOc1cc([C@H]2CN(C)C(=O)[C@@H]2C(=O)Nc2cccc(F)c2F)cc(C(F)(F)F)c1 [Compound 971]",
    "quantitativeReadout": 0
  },
  {
    "compound": "CN1C[C@H](c2cc(F)cc(F)c2)[C@@H](C(=O)Nc2ccc(C(F)(F)F)cc2)C1=O [Compound 968]",
    "quantitativeReadout": 0
  },
  {
    "compound": "O=C(Nc1cccc(Cl)c1F)[C@H]1C(=O)N(C2CC2)CC[C@@H]1c1ccc(F)cc1 [Compound 1006]",
    "quantitativeReadout": 0
  },
  {
    "compound": "Cc1ccc([C@H]2CN(C)C(=O)[C@@H]2C(=O)Nc2ccccc2F)cc1C [Compound 1038]",
    "quantitativeReadout": 80
  }
]

---

# Test system: ryegrass, Italian (Italian ryegrass, Lolium multiflorum)
# protocolNotes: Test A preemergence
# Format: in vivo
# conditionLabel: Lolium multiflorum, pre-emergence, 240 h, 125 g ai/ha, preemergence; 0 to 100 scale where 0 is no effect and 100 is complete control; approx. 10 d; read-out: Ryegrass, Italian plant response rating
# Source text: […]
Listed below: pest or weed control at 125 g/ha values for each entry.
propertyLabel: pest or weed control at 125 g/ha

[
  {
    "compound": "CN1C[C@H](c2ccc3c(c2)OCO3)[C@@H](C(=O)Nc2cccc(F)c2F)C1=O [Compound 1126]",
    "propertyLabel": "pest or weed control at 125 g/ha",
    "result": "0%"
  },
  {
    "compound": "C=C(C)c1cccc([C@H]2CN(C)C(=O)[C@@H]2C(=O)Nc2cccc(F)c2C)c1 [Compound 1086]",
    "propertyLabel": "pest or weed control at 125 g/ha",
    "result": "30%"
  },
  {
    "compound": "CN1C[C@H](c2csc3c2CCCC3)[C@@H](C(=O)Nc2ccc(F)c(F)c2F)C1=O [Compound 1079]",
    "propertyLabel": "pest or weed control at 125 g/ha",
    "result": "0%"
  },
  {
    "compound": "CN1C[C@H](c2ccc(C(F)(F)F)cn2)[C@@H](C(=O)Nc2ccc(F)c(F)c2F)C1=O [Compound 1106]",
    "propertyLabel": "pest or weed control at 125 g/ha",
    "result": "0%"
  },
  {
    "compound": "Cc1ccncc1NC(=O)[C@H]1C(=O)N(C)C[C@@H]1c1ccc(C(F)(F)F)cc1 [Compound 1068]",
    "propertyLabel": "pest or weed control at 125 g/ha",
    "result": "0%"
  },
  {
    "compound": "CN1C[C@H](c2cc(F)cc(C(F)(F)F)c2)[C@@H](C(=O)Nc2cccnc2F)C1=O [Compound 1176]",
    "propertyLabel": "pest or weed control at 125 g/ha",
    "result": "50%"
  },
  {
    "compound": "Cc1cc([C@H]2CN(C)C(=O)[C@@H]2C(=O)Nc2ccccc2S(C)(=O)=O)ccc1Br [Compound 1102]",
    "propertyLabel": "pest or weed control at 125 g/ha",
    "result": "30%"
  }
]
